Reference source for all entries: patent US8778951B2

# assay-system: Cdk9/cyclinT1 (Homo sapiens (Human), UniProt P50750)
# Sequence (P50750 whole entry): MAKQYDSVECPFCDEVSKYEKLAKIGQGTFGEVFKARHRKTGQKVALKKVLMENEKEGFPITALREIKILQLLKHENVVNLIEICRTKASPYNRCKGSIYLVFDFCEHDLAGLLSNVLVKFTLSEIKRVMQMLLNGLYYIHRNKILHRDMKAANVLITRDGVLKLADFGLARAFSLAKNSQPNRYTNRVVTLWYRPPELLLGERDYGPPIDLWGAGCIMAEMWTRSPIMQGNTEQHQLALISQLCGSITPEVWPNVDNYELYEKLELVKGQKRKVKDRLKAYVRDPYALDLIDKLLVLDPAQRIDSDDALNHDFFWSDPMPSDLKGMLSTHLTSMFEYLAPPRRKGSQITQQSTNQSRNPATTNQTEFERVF
# Sequence (O60563 whole entry partner): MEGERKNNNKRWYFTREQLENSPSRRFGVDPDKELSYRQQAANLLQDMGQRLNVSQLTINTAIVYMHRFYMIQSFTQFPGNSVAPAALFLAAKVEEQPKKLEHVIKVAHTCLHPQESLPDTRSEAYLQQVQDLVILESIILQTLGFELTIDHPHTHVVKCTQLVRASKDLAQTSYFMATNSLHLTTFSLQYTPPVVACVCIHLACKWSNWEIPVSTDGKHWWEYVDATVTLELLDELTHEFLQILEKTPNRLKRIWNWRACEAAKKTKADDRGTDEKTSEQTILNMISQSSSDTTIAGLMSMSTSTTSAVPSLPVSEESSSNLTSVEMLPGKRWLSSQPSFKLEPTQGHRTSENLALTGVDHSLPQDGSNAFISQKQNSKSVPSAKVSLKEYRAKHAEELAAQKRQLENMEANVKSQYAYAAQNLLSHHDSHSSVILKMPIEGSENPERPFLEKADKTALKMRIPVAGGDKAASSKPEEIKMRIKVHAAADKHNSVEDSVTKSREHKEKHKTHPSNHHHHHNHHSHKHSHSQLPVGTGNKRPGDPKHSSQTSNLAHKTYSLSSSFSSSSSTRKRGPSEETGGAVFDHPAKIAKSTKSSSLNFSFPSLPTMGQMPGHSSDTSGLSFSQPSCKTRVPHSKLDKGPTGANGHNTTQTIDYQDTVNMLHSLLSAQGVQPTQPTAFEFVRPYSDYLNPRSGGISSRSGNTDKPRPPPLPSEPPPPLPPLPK
# protocol-summary: Cdk9/CyclinT1 IMAP Protocol (fluorescence polarization kinase assay)
# experimental-parameters: Table 2; generated using one of the two Cdk9/cyclinT1 assays (IMAP or Alpha Screen), not specified which; unit inferred
pIC50: −log10 of the molar value.
assay-endpoint: pIC50

CCCCNc1cc(-c2cccc(NCc3cccc(F)c3)n2)c(Cl)cn1 [Compound 173]	7.21
N[C@H]1CC[C@@H](Nc2cc(-c3cccc(NCc4cccc(F)c4)n3)c(Cl)cn2)CC1 [Compound 139]	7.52
NC(=O)c1ncc(-c2cc(N[C@H]3CC[C@H](N)CC3)ncc2Cl)nc1NCC1CCOCC1 [Compound 224]	7.04
CN(CC1CCOCC1)c1cncc(-c2cc(N[C@H]3CC[C@H](CN)CC3)ncc2Cl)n1 [Compound 249]	7.50

(a) NC[C@H]1CC[C@H](Nc2cc(-c3cccc(NCc4cccnc4)n3)c(Cl)cn2)CC1 [Compound 58]
(b) COCCN[C@H]1CC[C@H](Nc2cc(-c3cncc(N(C)CC4CCOCC4)n3)c(Cl)cn2)CC1 [Compound 252]
(c) N#CC1(CNc2nc(-c3cc(N[C@H]4CC[C@H](N)CC4)ncc3Cl)ccc2F)CCOCC1 [Compound 341]
(d) COC[C@@H](C)N[C@H]1CC[C@H](Nc2cc(-c3ccc(F)c(NCC4CCOCC4)n3)c(Cl)cn2)CC1 [Compound 294]
Inquiry: Could you please order the items by pIC50, going from the lowest number to the highest? Please reply with the labels ordered as requested. Many thanks.
Reply text: a, b, d, c
